Attribution: PubChem BioAssay

- Procedure text: reduced mouse 2C T cell binding to pMHC/ICAM-1 vesicles – MLPCN validation set, flow cytometry, LFA-1/ICAM-1 modulator project, pilot screen (AID 2523);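 also: mean PE anti-B7-1 fluorescence of CD8+ cells relative to row control; 100% = QL9-loaded vesicles with DMSO vehicle in the same plate row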
- Condition: 2C mouse CD8+ T cells, at 7 µM, hits give low values
Quick reference for vesicle binding response among some compounds

Compound | vesicle binding response [%]
O=C(/C=C/c1c[nH]c2ccccc12)c1cccc2ccccc12 | 336
Cc1nc(N)sc1C(=O)N/N=C/c1ccco1 | 145
NNC(=O)c1cc(O)c(O)c(O)c1 | 149
COC(=O)C1=C(C)NC(C)=C([N+](=O)[O-])C1c1ccccc1C(F)(F)F (stereo unspecified) | 160
CC(C)CCNC(=O)[C@H](CC(C)C)NC(=O)[C@H]1O[C@@H]1C(=O)O | 39.4
CC(=O)N1CCN(c2ccc(OC[C@H]3CO[C@](Cn4ccnc4)(c4ccc(Cl)cc4Cl)O3)cc2)CC1 | 188
Cc1nnc(SCC2=C(C(=O)O)N3C(=O)[C@@H](NC(=O)Cn4cnnn4)[C@H]3SC2)s1 | 282
C[C@]12CC[C@@H]3c4ccc(O)cc4[C@@H](O)C[C@H]3[C@@H]1CC[C@@H]2O | 53.4
CN(C(=O)C(Cl)Cl)c1ccc(OC(=O)c2ccco2)cc1 | 90.2
C[C@H]1O[C@@H](O[C@H]2[C@@H](O)C[C@H](O[C@H]3[C@@H](O)C[C@H](O[C@H]4CC[C@@]5(C)[C@H](CC[C@@H]6[C@@H]5C[C@@H](O)[C@]5(C)[C@@H](C7=CC(=O)OC7)CC[C@]65O)C4)O[C@@H]3C)O[C@@H]2C)C[C@H](O)[C@@H]1O | 151
CC[N+]1(CC)CC2=Cc3ccccc3CC2C1 (stereo unspecified) | 178
COc1cccc(N2C(=O)CC(c3c[nH]c4ccccc34)C2=O)c1 (stereo unspecified) | 159
CCC(C)NCCOCCOc1ccc(Cl)cc1Br (stereo unspecified) | 142
CC1(C)O[C@@H]2C[C@H]3[C@@H]4C[C@H](F)C5=CC(=O)CC[C@]5(C)[C@H]4[C@@H](O)C[C@]3(C)[C@]2(C(=O)CO)O1 | 128
CCOc1ccc(N2C(=O)CNC2=S)cc1 | 202
CSc1cccc(NC(=O)/C=C/c2ccccc2)c1 | 219
CC1(C)Oc2ccc(C#N)cc2[C@@H](N2CCCC2=O)[C@@H]1O | 180
COc1ccc2oc(C)c(C(N)=O)c2c1 | 132
c1ccc(SSc2ccccc2)cc1 | 301
COc1ccc(C2C(C(=O)c3ccco3)=C(O)C(=O)N2CC2CCCO2)cc1 (stereo unspecified) | 351
NC(=O)c1cccnc1 | 242
